System: RPMI2650
EXPERIMENTAL PROTOCOL: IC50 cell viability (Alamar Blue, 96 h)
QUANTITY MEASURED: IC50 cell viability (µM)

In [3]: df
Out[3]:
                                   molecule  limit_sign  obs_value
0  CN(Cc1cnc2nc(N)nc(N)c2n1)c1ccc(C(=O)N[C@@H](CCC(=O)O)C(=O)O)cc1 [Methotrexate]           >         10
1  COc1cccc2c1C(=O)c1c(O)c3c(c(O)c1C2=O)C[C@@](O)(C(C)=O)C[C@@H]3O[C@H]1C[C@H](N)[C@H](O)[C@H](C)O1           =      0.285
2  Nc1ccn([C@@H]2O[C@H](CO)[C@@H](O)C2(F)F)c(=O)n1           =       3.33
3  Cc1csc(-c2nnc(Nc3ccc(Oc4ncccc4-c4ccnc(N)n4)cc3)c3ccccc23)c1           >         10
